- Test system: MDA-MB-468 breast
- ASSAY_NOTES: NCI-60 one-dose screen, 48 h (100 = growth as untreated, 0 = no growth, -100 = all killed)
- EXPERIMENTAL_CONTEXT: 10 µM unless noted
About 83,000 compounds went through this panel and 20% of them were active in at least one assay; those are over-represented in the sample as a whole.
We label by threshold. Values of growth strictly beneath -20% are label 1. Values of -20% and up are label 0.

# input is_below(growth, -20%) for C#C[C@]1(O)CC[C@H]2[C@@H]3CC=C4c5sc(Nc6ccc(C)cn6)nc5CC[C@]4(C)[C@H]3CC[C@@]21C ?
# output label 1

# input Would you kindly verify if growth of C=C1C(=O)O[C@H]2[C@H]1CC/C(COC(=O)C(=O)c1cn(C)c3ccc(Cl)cc13)=C\CC[C@@]1(C)O[C@@H]21 is strictly less than -20%?
# output label 1

# input Please check: growth for CCCCC1=c2c([nH]c3ccc(OC)cc23)=NC2C=CC=NC12 (stereo not drawn) , strictly under -20% or not?
# output label 1

# input Regarding Cc1[nH]c(-c2nc3ccccc3[nH]2)c(C)c1C(=O)NNc1ccc(Cl)cc1 , kindly confirm whether its growth is beneath -20%.
# output label 0

# input In plain terms, does CCCCCCOc1ccc(C(=N)N(CCCC)CCCC)c2ccccc12 come in under -20% for growth?
# output label 1

# input Please let me know if COC(=O)[C@H](CSC)N(C)C(=O)[C@@H]1CSSC[C@@H](NC(=O)c2nc3ccccc3cc2O)C(=O)NCC(=O)N1C shows growth below -20%.
# output label 0

# input Determine if COc1ccc(C2CC(c3cc(OC)c(OC)c(OC)c3)=NN2C(C)=O)cc1OCC(=O)Nc1nc2ccc(C(F)(F)F)cc2s1 (stereo not drawn) shows growth strictly lower than -20%.
# output label 0

# input Find out if reported growth for N#C/C(=C\c1ccc(-c2ccc(Cl)cc2)o1)C(=O)Nc1ncc(Cc2ccc(Br)cc2)s1 is less than -20%
# output label 0

Measured values drawn from PubChem BioAssay (NCI) for this set.
